# target.under.test: AURKC (human)
# assay.method.text: radiometric filter-binding kinase assay
# reported.conditions: compound 1.0 µM; ATP 5 µM
Classify by measured residual activity: criterion met if it is equal to or exceeds 80%, criterion not met if it is smaller.

Consider the worked cases shown below.
1. O=C1c2ccccc2-c2n[nH]c3cccc1c23	criterion not met
2. COc1ccc2c(c1)=NC1=C(C)NCCC=21	criterion met
3. O=S(=O)(NCCNC/C=C/c1ccc(Br)cc1)c1cccc2cnccc12	criterion not met
4. CO[C@H]1CC2CC[C@@H](C)[C@@](O)(O2)C(=O)C(=O)N2CCCC[C@H]2C(=O)OC([C@H](C)C[C@@H]2CC[C@@H](O)[C@H](OC)C2)CC(=O)[C@H](C)/C=C(\C)[C@@H](O)[C@@H](OC)C(=O)[C@H](C)C[C@H](C)/C=C/C=C/C=C/1C (stereo partly specified)	criterion met
5. CC(C)(N)c1ccc(-c2nc3ccccc3nc2-c2ccccc2)cc1	criterion not met

From here, focus on the item given below.
Hi, just wondering whether "COC[C@H]1OC(=O)c2coc3c2[C@@]1(C)C1=C(C3=O)[C@@H]2CCC(=O)[C@@]2(C)C[C@H]1OC(C)=O" shows residual activity of 80% or higher.
criterion not met
